Biological target: HLA-A*1101 (Homo sapiens, UniProt P04439, A114D/D185E/E176A/F33Y/L180Q/S129P/T187R)
Assay: competitive MHC allele binding assay, A*1101
Where no end group is shown, it is not given here.
value_type: pIC50
One number for each entry, as −log10 of the molar value.

EVYEGVWKK [E225K-B WT] : 7.20

Attention now turns to another entry.
### Prompt // returns reported pIC50 for input KLGGGQYGK [E255K-A]
### Response 5.97

====

Record form. Attribute: IC50. Fill in for each entry.
Target: HLA-A*0301 (Homo sapiens, UniProt P04439)
Test: competitive MHC allele binding assay, A*0301
Where no end group is shown, it is not given here.
Answers are plain numbers, in nM.

KLGGGQYGK [E255K-A] : 208

### Prompt // returns reported IC50 for input EVYEGVWKK [E225K-B WT]
### Response 1070

====

Target: HLA-A*3301 (Homo sapiens, UniProt P04439, A270S/D185E/E176V/E277Q/E87N/F33T/G231S/H175R/I121M/I218V/I322F/K168Q/K210R/L300P/L318F/M331R/P217A/Q86R/Q94H/R138Q/T323A/T345S/T97I/V358M/Y195H)
Assay: competitive MHC allele binding assay, A*3301
Where no end group is shown, it is not given here.
Record form. Attribute: IC50. Fill in for each entry.

KLGGGQYGK [E255K-A] : > 70000 nM

### Prompt // returns reported IC50 for input EVYEGVWKK [E225K-B WT]
### Response 60 nM

====

Target: HLA-A*3101 (Homo sapiens, UniProt P04439, A270S/D185E/E176V/E277Q/F33T/G231S/G80R/H175R/I121M/I218V/I322F/K168Q/L300P/L318F/M331R/P217A/Q94H/R138Q/T323A/T345S/T97I/V358M)
Experiment: competitive MHC allele binding assay, A*3101
Where no end group is shown, it is not given here.
value_type: pIC50
One number for each entry, as −log10 of the molar value.

### Prompt // returns reported pIC50 for input KLGGGQYGK [E255K-A]
### Response 4.50
